- target or test system: CDK14/Cyclin Y (Homo sapiens)
- Sequence (O94921 whole entry): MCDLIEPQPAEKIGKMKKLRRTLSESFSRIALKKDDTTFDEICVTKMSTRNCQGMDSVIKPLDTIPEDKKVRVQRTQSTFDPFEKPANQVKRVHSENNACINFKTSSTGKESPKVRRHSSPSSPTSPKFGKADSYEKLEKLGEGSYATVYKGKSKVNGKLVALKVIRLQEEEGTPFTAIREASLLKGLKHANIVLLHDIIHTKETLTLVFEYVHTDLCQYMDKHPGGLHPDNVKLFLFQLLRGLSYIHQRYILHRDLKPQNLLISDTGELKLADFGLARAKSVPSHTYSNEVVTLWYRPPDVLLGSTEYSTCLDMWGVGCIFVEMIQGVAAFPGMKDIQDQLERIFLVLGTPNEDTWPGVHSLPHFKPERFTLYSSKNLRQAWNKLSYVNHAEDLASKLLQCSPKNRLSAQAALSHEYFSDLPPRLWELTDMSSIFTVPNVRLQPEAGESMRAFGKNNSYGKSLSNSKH
- Sequence (Q8ND76 whole entry partner): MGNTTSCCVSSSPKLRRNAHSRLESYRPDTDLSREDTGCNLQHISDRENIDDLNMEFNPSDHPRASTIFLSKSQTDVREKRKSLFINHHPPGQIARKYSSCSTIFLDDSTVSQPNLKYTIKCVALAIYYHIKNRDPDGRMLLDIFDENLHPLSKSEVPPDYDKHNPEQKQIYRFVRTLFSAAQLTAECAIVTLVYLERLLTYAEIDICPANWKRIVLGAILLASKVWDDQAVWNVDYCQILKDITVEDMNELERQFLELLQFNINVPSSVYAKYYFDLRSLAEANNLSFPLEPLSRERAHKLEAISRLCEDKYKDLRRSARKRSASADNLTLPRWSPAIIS
- protocol notes: NanoBRET live-cell target engagement, CDK14-NanoLuc/Cyclin Y in HEK-293
- Type: binding
- condition: CDK14/Y; experiment 3; read-out: IC50
attribute measured: pIC50
Convention used: pIC50 is expressed as -log10 of the molar concentration.

pIC50 reading for `CN1CCN(c2ccc(Nc3ncc4cc(C#N)c(=O)n(C5CCCC5)c4n3)cc2)CC1` : 7.00

---

- target or test system: CDK11B/Cyclin L2 (Homo sapiens)
- Sequence (P21127 1-782 isoform P21127-2): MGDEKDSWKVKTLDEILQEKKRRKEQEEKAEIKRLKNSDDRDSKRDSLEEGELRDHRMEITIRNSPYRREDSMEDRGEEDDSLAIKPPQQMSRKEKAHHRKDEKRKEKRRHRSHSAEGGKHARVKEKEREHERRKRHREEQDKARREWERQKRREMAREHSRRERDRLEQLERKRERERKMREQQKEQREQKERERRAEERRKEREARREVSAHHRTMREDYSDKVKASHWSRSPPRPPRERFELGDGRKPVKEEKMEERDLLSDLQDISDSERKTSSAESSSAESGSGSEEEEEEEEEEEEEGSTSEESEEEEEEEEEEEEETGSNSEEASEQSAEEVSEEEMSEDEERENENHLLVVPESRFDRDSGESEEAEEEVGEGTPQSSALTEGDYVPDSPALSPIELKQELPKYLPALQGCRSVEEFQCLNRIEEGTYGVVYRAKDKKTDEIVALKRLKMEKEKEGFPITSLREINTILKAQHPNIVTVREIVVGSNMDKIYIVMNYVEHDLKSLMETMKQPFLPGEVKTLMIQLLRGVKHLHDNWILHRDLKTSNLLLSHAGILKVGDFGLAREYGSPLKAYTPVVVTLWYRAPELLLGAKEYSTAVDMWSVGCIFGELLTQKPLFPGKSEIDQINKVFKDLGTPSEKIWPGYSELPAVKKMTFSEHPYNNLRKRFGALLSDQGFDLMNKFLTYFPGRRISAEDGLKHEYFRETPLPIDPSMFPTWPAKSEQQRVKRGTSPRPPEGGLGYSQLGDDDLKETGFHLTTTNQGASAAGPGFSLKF
- protocol notes: NanoBRET live-cell target engagement, CDK11B-NanoLuc/Cyclin L2 in HEK-293
- Assay type: binding
- condition: CDK11b/L2; average; read-out: Inhibition at 10µM (%)
// not fulfilled strictly below 40% in inhibition at 10 µM; fulfilled otherwise

{"molecule": "CC(C)(C)c1nc(-c2cccc(NS(=O)(=O)c3c(F)cccc3F)c2F)c(-c2ccnc(N)n2)s1 [Dabrafenib]", "class": "not fulfilled"}

Q) In plain terms: is recorded inhibition at 10 µM at least 40% for COc1ccc(F)cc1-c1cc(NC(=O)C2CCCNC2)ncc1Cl (stereo not drawn) [CDK inhibitor 2] ?
A) fulfilled

Q) For this molecule, is measured inhibition at 10 µM 40% or higher? CC(C)c1cnn2c(NCc3ccccc3)cc(NC[C@H]3CCNC[C@@H]3O)nc12 [CT7001]
A) fulfilled

---

- target or test system: CDK20/Cyclin H (Homo sapiens)
- Sequence (Q8IZL9 whole entry): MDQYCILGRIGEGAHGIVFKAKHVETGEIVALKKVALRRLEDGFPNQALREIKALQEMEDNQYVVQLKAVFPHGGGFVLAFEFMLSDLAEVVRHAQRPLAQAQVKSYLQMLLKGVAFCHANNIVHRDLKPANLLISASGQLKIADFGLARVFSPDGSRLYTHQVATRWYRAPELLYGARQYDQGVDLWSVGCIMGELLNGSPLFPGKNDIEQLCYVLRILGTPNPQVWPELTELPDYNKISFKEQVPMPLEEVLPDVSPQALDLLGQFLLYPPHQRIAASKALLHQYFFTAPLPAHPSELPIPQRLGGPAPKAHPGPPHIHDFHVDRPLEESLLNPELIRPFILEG
- Sequence (P51946 whole entry partner): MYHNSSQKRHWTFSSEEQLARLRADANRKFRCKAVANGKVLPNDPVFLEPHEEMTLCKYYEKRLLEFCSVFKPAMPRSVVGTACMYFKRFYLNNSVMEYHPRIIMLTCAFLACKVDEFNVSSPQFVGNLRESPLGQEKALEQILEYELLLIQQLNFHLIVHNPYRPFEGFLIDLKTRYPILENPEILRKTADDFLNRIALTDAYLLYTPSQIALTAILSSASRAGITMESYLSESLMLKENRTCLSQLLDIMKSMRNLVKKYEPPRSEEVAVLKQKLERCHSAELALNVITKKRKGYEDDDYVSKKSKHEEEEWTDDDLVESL
- protocol notes: NanoBRET live-cell target engagement, NanoLuc-CDK20/Cyclin H in HEK-293
- Assay type: binding
- condition: CDK20/H; experiment 1
attribute measured: Inhibition at 10µM (%)
Unit % implied. Number only.

Inhibition at 10µM (%) measured on CC(C)c1cnn2c(NCc3ccccc3-n3cccn3)nc(OC3CCCNC3)nc12 (stereo not drawn) = 53.8

Data point: `CNc1nc(C)c(-c2nc(Nc3cccc(S(N)(=O)=O)c3)ncc2F)s1` ; Inhibition at 10µM (%) = 73.0

Measured Inhibition at 10µM (%) of `CC(C)c1c2cc(-c3ccnc(N[C@H]4CC[C@H](NC5CCOCC5)CC4)n3)ccc2nn1C` : 39.4

Inhibition at 10µM (%) measured on CN1CCC(c2c(O)cc(O)c3c(=O)cc(-c4ccccc4Cl)oc23)C1CO (stereo not drawn) = -0.6

Record CCn1cnc2c(Nc3cccc(Cl)c3)nc(N[C@@H]3CCCC[C@@H]3N)nc21 [CGP74514A] , field Inhibition at 10µM (%): 40.4

Record summary for `CS(=O)(=O)N1CCC(NC(=O)c2[nH]ncc2NC(=O)c2c(Cl)cccc2Cl)CC1` : reported Inhibition at 10µM (%) = 26.0

---

- target or test system: CDK9/Cyclin K (Homo sapiens, UniProt P50750)
- Sequence (P50750 whole entry): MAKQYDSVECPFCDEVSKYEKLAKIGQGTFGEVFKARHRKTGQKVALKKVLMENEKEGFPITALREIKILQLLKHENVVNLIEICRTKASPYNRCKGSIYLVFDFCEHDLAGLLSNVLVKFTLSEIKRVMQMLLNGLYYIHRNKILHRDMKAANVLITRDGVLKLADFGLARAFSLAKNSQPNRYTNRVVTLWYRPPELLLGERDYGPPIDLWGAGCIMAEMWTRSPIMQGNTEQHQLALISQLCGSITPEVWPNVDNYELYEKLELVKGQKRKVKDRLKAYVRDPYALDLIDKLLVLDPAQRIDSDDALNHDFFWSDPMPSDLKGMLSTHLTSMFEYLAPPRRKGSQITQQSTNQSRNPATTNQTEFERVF
- Sequence (O75909 whole entry partner): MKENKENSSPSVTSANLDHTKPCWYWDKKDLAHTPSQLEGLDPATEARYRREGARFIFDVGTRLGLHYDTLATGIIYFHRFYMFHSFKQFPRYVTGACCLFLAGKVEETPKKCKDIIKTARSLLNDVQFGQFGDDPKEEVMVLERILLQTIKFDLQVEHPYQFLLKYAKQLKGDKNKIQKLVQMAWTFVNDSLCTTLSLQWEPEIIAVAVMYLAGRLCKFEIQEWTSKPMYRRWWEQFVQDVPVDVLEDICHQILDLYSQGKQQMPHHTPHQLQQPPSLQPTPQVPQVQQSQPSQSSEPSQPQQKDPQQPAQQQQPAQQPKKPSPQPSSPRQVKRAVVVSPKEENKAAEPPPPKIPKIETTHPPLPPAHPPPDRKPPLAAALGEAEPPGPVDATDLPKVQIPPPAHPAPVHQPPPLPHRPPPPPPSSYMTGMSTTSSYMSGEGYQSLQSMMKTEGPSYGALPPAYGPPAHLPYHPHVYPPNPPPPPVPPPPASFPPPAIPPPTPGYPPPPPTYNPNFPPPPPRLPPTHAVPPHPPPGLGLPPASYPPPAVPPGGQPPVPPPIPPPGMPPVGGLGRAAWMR
- protocol notes: NanoBRET live-cell target engagement, NanoLuc-CDK9/Cyclin K in HEK-293
- Assay type: binding
- condition: CDK9/K; experiment 1
attribute measured: IC50 (nM)
Give the value, in units of nM, as a plain number.

Looking up COc1ccc(F)cc1-c1cc(NC(=O)C2CCCNC2)ncc1Cl (stereo not shown) [CDK inhibitor 2] , I see its IC50 listed as 5

---

- target or test system: CDK19/Cyclin C (Homo sapiens, UniProt Q9BWU1)
- Sequence (Q9BWU1 whole entry): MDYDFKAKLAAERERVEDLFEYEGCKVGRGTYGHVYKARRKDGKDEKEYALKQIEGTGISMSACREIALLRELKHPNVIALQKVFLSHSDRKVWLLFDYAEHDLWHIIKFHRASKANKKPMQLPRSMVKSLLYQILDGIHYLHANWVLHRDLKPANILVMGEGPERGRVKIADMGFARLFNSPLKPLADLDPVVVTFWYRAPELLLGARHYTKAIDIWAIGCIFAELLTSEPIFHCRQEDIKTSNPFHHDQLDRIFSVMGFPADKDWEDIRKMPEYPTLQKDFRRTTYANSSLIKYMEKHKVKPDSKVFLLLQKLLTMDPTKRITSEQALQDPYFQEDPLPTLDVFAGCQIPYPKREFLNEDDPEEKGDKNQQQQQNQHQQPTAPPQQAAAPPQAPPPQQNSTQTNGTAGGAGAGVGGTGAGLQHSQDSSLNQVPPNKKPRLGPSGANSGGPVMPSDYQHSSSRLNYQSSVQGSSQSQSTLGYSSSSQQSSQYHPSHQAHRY
- Sequence (P24863 whole entry partner): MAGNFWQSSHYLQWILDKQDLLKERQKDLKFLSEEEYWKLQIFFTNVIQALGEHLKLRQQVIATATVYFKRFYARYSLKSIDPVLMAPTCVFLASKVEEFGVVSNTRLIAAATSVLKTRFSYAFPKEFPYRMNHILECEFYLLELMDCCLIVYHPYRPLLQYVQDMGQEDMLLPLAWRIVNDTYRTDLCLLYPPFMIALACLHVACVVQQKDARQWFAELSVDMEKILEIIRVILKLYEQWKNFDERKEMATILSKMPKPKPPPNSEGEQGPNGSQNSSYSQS
- protocol notes: NanoBRET live-cell target engagement, NanoLuc-CDK19/Cyclin C in HEK-293
- condition: read-out: Inhibition at 10µM (%) Replicate 1, CDK19/C; 10µM
# Lookup of reported inhibition at 10 µM keyed by entry
State just the number; it will be interpreted in %.

Consider the following illustrative entries.
{"compound": "O=C(NC1CCNCC1)c1[nH]ncc1NC(=O)c1c(Cl)cccc1Cl [AT7519]", "inhibition at 10 µM (%)": 45.9}
{"compound": "CCN1CCN(Cc2ccc(Nc3ncc(F)c(-c4cc(F)c5nc(C)n(C(C)C)c5c4)n3)nc2)CC1 [Abemaciclib]", "inhibition at 10 µM (%)": 41.9}
{"compound": "CC(C)c1cnn2c(NCc3ccccc3)cc(NCCCCCCN)nc12 [BS-181]", "inhibition at 10 µM (%)": 15}
{"compound": "Cc1ncc(-c2ccnc(Nc3ccc(S(C)(=O)=O)cc3)n2)n1C(C)C [AZD5438]", "inhibition at 10 µM (%)": 90.6}
{"compound": "COc1cc(F)ccc1-c1ncnc(Nc2cccc(C[S@](C)(=N)=O)c2)n1 [Atuveciclib]", "inhibition at 10 µM (%)": 12.3}

Documented inhibition at 10 µM of COc1cc(F)ccc1-c1cc(Nc2cc(CS(C)(=N)=O)ccn2)ncc1F (stereo not drawn) [BAY-1251152] : 28.8

Lookup result for CCN1CCN(Cc2ccc(NC(=O)Nc3ccc(Oc4cc(NC)ncn4)cc3)cc2C(F)(F)F)CC1 [AST-487] ; measured inhibition at 10 µM: 94.2

What the record says about C[C@H]1CC[C@H](n2c3cnccc3c3cnc(Nc4ccc5c(n4)CCN(C(=O)CO)C5)nc32)CC1 [AMG 925] : inhibition at 10 µM is 17.8

Recorded result, CCCCOc1c(C(=O)c2c(F)cc(C)cc2F)c[nH]c2nncc1-2 [BMS-265246] , inhibition at 10 µM: 98.1
